Reference for the values: PubChem BioAssay AID1963430

# Test system: 521955-158-R2-J5-PDC complex spheroid growth, % test/control
# method_description: Anticancer human tumor 521955-158-R2-J5-PDC patient-derived pancreatic carcinoma cell line growth inhibition [Asc]
# experimental_parameters: second compound 0.316 µM; first compound 0.316 µM; stronger effect = lower value
Catalogue of viability, T/C values
Please respond with the number in % and leave the unit unwritten.

stdin: Query the reported viability, T/C for 521955-158-R2-J5-PDC complex spheroid growth, % test/control; item: O=C(c1cc(Cc2n[nH]c(=O)c3ccccc23)ccc1F)N1CCN(C(=O)C2CC2)CC1 + Cc1c(S(C)(=O)=O)c(-c2cc(F)cc(N3CCN(c4ccc(NS(=O)(=O)c5ccc(NC(CCN6CCC(C(=O)OCCCP(=O)(O)O)CC6)CSc6ccccc6)c(S(=O)(=O)C(F)(F)F)c5)cc4)CC3)c2)c(-c2ccc(Cl)cc2)n1C(C)C
stdout: 61.4

More entries:
stdin: Query the reported viability, T/C for 521955-158-R2-J5-PDC complex spheroid growth, % test/control; item: C=C(F)C(=O)N1CCN(c2nc(OCC3CCCN3C)nc3c2CCN(c2cccc4cccc(Cl)c24)C3)CC1CC#N (configuration not stated) + Cc1c(S(C)(=O)=O)c(-c2cc(F)cc(N3CCN(c4ccc(NS(=O)(=O)c5ccc(NC(CCN6CCC(C(=O)OCCCP(=O)(O)O)CC6)CSc6ccccc6)c(S(=O)(=O)C(F)(F)F)c5)cc4)CC3)c2)c(-c2ccc(Cl)cc2)n1C(C)C
stdout: 81.7

====

# System: 521955-158-R2-J5-PDC complex spheroid growth, % test/control
# method_description: Anticancer human tumor 521955-158-R2-J5-PDC cell line growth inhibition [Asc]
# experimental_parameters: second compound 0.0316 µM; first compound 0.00316 µM; stronger effect = lower value
Kindly apply the following: y if viability, T/C is less than 80%, n in every other case.

stdin: A record lists O=C(c1ccc(F)c(F)c1Nc1ccc(I)cc1F)N1CC(O)([C@@H]2CCCCN2)C1 + CNC(C)C(=O)NC1CN(S(=O)(=O)c2cccc(S(=O)(=O)N3CCC4CCC(C(=O)NC(c5ccccc5)c5ccccc5)N4C(=O)C(NC(=O)C(C)NC)C3)c2)CCC2CCC(C(=O)NC(c3ccccc3)c3ccccc3)N2C1=O . Is its viability, T/C below 80%?
stdout: y

stdin: A record lists COc1c(OCCCN2CCOCC2)ccc2c3n(c(=NC(=O)c4cnc(N)nc4)nc12)CCN3 + CNC(C)C(=O)NC1CN(S(=O)(=O)c2cccc(S(=O)(=O)N3CCC4CCC(C(=O)NC(c5ccccc5)c5ccccc5)N4C(=O)C(NC(=O)C(C)NC)C3)c2)CCC2CCC(C(=O)NC(c3ccccc3)c3ccccc3)N2C1=O . Is its viability, T/C below 80%?
stdout: y

More entries:
stdin: A record lists NC1CCC(NC2CC2c2ccccc2)CC1 (stereo not given) + CNC(C)C(=O)NC1CN(S(=O)(=O)c2cccc(S(=O)(=O)N3CCC4CCC(C(=O)NC(c5ccccc5)c5ccccc5)N4C(=O)C(NC(=O)C(C)NC)C3)c2)CCC2CCC(C(=O)NC(c3ccccc3)c3ccccc3)N2C1=O . Is its viability, T/C below 80%?
stdout: y

stdin: A record lists Cn1ncnc1[C@H]1c2n[nH]c(=O)c3cc(F)cc(c23)N[C@@H]1c1ccc(F)cc1 + CNC(C)C(=O)NC1CN(S(=O)(=O)c2cccc(S(=O)(=O)N3CCC4CCC(C(=O)NC(c5ccccc5)c5ccccc5)N4C(=O)C(NC(=O)C(C)NC)C3)c2)CCC2CCC(C(=O)NC(c3ccccc3)c3ccccc3)N2C1=O . Is its viability, T/C below 80%?
stdout: n

stdin: A record lists CCN1CCN(Cc2ccc(Nc3ncc(F)c(-c4cc(F)c5nc(C)n(C(C)C)c5c4)n3)nc2)CC1 + CNC(C)C(=O)NC1CN(S(=O)(=O)c2cccc(S(=O)(=O)N3CCC4CCC(C(=O)NC(c5ccccc5)c5ccccc5)N4C(=O)C(NC(=O)C(C)NC)C3)c2)CCC2CCC(C(=O)NC(c3ccccc3)c3ccccc3)N2C1=O . Is its viability, T/C below 80%?
stdout: n

====

Catalogue of viability, T/C values
# Tested on: 521955-158-R2-J5-PDC complex spheroid growth, % test/control
# method_description: Anticancer human tumor 521955-158-R2-J5-PDC cell line growth inhibition [Asc];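 further: spheroids exposed to agents for 7 days before readout; 100% = DMSO vehicle control viability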
# experimental_parameters: second compound 0.1 µM; first compound 0.0949 µM; stronger effect = lower value
Please respond with the number in % and leave the unit unwritten.

stdin: Return reported viability, T/C; argument: NC(=O)C(=Cn1cnc(-c2cc(C(F)(F)F)cc(C(F)(F)F)c2)n1)c1cncnc1 + Cc1c(S(C)(=O)=O)c(-c2cc(F)cc(N3CCN(c4ccc(NS(=O)(=O)c5ccc(NC(CCN6CCC(C(=O)OCCCP(=O)(O)O)CC6)CSc6ccccc6)c(S(=O)(=O)C(F)(F)F)c5)cc4)CC3)c2)c(-c2ccc(Cl)cc2)n1C(C)C
stdout: 22.3

Note: attention shifts to another entry.
stdin: Return reported viability, T/C; argument: Cc1nc(N2CCC3(CC2)COC(C)C3N)c(CO)nc1Sc1ccnc(N)c1Cl (configuration not stated) + Cc1c(S(C)(=O)=O)c(-c2cc(F)cc(N3CCN(c4ccc(NS(=O)(=O)c5ccc(NC(CCN6CCC(C(=O)OCCCP(=O)(O)O)CC6)CSc6ccccc6)c(S(=O)(=O)C(F)(F)F)c5)cc4)CC3)c2)c(-c2ccc(Cl)cc2)n1C(C)C
stdout: 45.8

====

Catalogue of viability, T/C values
# System: 521955-158-R2-J5-PDC complex spheroid growth, % test/control
# method_description: Anticancer human tumor 521955-158-R2-J5-PDC cell line growth inhibition [Asc];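 further: spheroids exposed to agents for 7 days before readout; 100% = DMSO vehicle control viability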
# experimental_parameters: second compound 0.03 µM; first compound 0.01 µM; stronger effect = lower value
# From the text: Multicellular complex tumor spheroid response to apoptosis pathway targeting inhibitors Alrizomadlin, Pelcitoclax, and Dasminapant in combination with a variety of drugs and investigational agents in selected tumor cell lines […] Compounds. […] If the clinical Cmax for an agent had not been determined, the highest concentration tested was 10 microM. […]
Please respond with the number in % and leave the unit unwritten.

stdin: Query the reported viability, T/C for 521955-158-R2-J5-PDC complex spheroid growth, % test/control; item: COc1c(OCCCN2CCOCC2)ccc2c3n(c(=NC(=O)c4cnc(N)nc4)nc12)CCN3 + CCN1C(C(=O)NC23CCC(C(=O)O)(CC2)CC3)C(c2cccc(Cl)c2F)C2(C(=O)Nc3cc(Cl)ccc32)C12CCCCC2
stdout: 43.2

stdin: Query the reported viability, T/C for 521955-158-R2-J5-PDC complex spheroid growth, % test/control; item: CCN1CCN(Cc2ccc(Nc3ncc(F)c(-c4cc(F)c5nc(C)n(C(C)C)c5c4)n3)nc2)CC1 + CCN1C(C(=O)NC23CCC(C(=O)O)(CC2)CC3)C(c2cccc(Cl)c2F)C2(C(=O)Nc3cc(Cl)ccc32)C12CCCCC2
stdout: 88.8

Note: attention shifts to another entry.
stdin: Query the reported viability, T/C for 521955-158-R2-J5-PDC complex spheroid growth, % test/control; item: O=C(c1ccc(F)c(F)c1Nc1ccc(I)cc1F)N1CC(O)([C@@H]2CCCCN2)C1 + CCN1C(C(=O)NC23CCC(C(=O)O)(CC2)CC3)C(c2cccc(Cl)c2F)C2(C(=O)Nc3cc(Cl)ccc32)C12CCCCC2
stdout: 56

====

# System: 521955-158-R2-J5-PDC complex spheroid growth, % test/control
# method_description: Anticancer human tumor 521955-158-R2-J5-PDC cell line growth inhibition [Asc];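 further: spheroids exposed to agents for 7 days before readout; 100% = DMSO vehicle control viability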
# experimental_parameters: second compound 0.03 µM; first compound 0.01 µM; stronger effect = lower value
Catalogue of viability, T/C values
Please respond with the number in % and leave the unit unwritten.

stdin: Return reported viability, T/C; argument: CNC(C)C(=O)NC1CN(S(=O)(=O)c2cccc(S(=O)(=O)N3CCC4CCC(C(=O)NC(c5ccccc5)c5ccccc5)N4C(=O)C(NC(=O)C(C)NC)C3)c2)CCC2CCC(C(=O)NC(c3ccccc3)c3ccccc3)N2C1=O (stereo not drawn) + CCN1C(C(=O)NC23CCC(C(=O)O)(CC2)CC3)C(c2cccc(Cl)c2F)C2(C(=O)Nc3cc(Cl)ccc32)C12CCCCC2
stdout: 76.6

stdin: Return reported viability, T/C; argument: NC1CCC(NC2CC2c2ccccc2)CC1 (stereo not drawn) + CCN1C(C(=O)NC23CCC(C(=O)O)(CC2)CC3)C(c2cccc(Cl)c2F)C2(C(=O)Nc3cc(Cl)ccc32)C12CCCCC2
stdout: 59.2

More entries:
stdin: Return reported viability, T/C; argument: Cn1ncnc1[C@H]1c2n[nH]c(=O)c3cc(F)cc(c23)N[C@@H]1c1ccc(F)cc1 + CCN1C(C(=O)NC23CCC(C(=O)O)(CC2)CC3)C(c2cccc(Cl)c2F)C2(C(=O)Nc3cc(Cl)ccc32)C12CCCCC2
stdout: 57.9

====

# System: 521955-158-R2-J5-PDC complex spheroid growth, % test/control
# method_description: Anticancer human tumor 521955-158-R2-J5-PDC cell line growth inhibition [Asc];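 further: spheroids exposed to agents for 7 days before readout; 100% = DMSO vehicle control viability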
# experimental_parameters: second compound 1 µM; first compound 0.03 µM; stronger effect = lower value
# From the text: Multicellular complex tumor spheroid response to apoptosis pathway targeting inhibitors Alrizomadlin, Pelcitoclax, and Dasminapant in combination with a variety of drugs and investigational agents in selected tumor cell lines […] Compounds. […] If the clinical Cmax for an agent had not been determined, the highest concentration tested was 10 microM. […]
measured_metric: viability, T/C (%)
Please respond with the number in % and leave the unit unwritten.

Below: 4 compounds and their reported viability, T/C.
stdin: Return reported viability, T/C; argument: NC(=O)C(=Cn1cnc(-c2cc(C(F)(F)F)cc(C(F)(F)F)c2)n1)c1cncnc1 + CNC(C)C(=O)NC1CN(S(=O)(=O)c2cccc(S(=O)(=O)N3CCC4CCC(C(=O)NC(c5ccccc5)c5ccccc5)N4C(=O)C(NC(=O)C(C)NC)C3)c2)CCC2CCC(C(=O)NC(c3ccccc3)c3ccccc3)N2C1=O
stdout: 58.6

stdin: Return reported viability, T/C; argument: CCN1C(C(=O)NC23CCC(C(=O)O)(CC2)CC3)C(c2cccc(Cl)c2F)C2(C(=O)Nc3cc(Cl)ccc32)C12CCCCC2 (stereo unspecified) + CNC(C)C(=O)NC1CN(S(=O)(=O)c2cccc(S(=O)(=O)N3CCC4CCC(C(=O)NC(c5ccccc5)c5ccccc5)N4C(=O)C(NC(=O)C(C)NC)C3)c2)CCC2CCC(C(=O)NC(c3ccccc3)c3ccccc3)N2C1=O
stdout: 108

stdin: Return reported viability, T/C; argument: Cc1nc(N2CCC3(CC2)COC(C)C3N)c(CO)nc1Sc1ccnc(N)c1Cl (stereo unspecified) + CNC(C)C(=O)NC1CN(S(=O)(=O)c2cccc(S(=O)(=O)N3CCC4CCC(C(=O)NC(c5ccccc5)c5ccccc5)N4C(=O)C(NC(=O)C(C)NC)C3)c2)CCC2CCC(C(=O)NC(c3ccccc3)c3ccccc3)N2C1=O
stdout: 59.3

stdin: Return reported viability, T/C; argument: Cc1nc(N2CCC3(CC2)COC(C)C3N)c(CO)nc1Sc1ccnc(N)c1Cl (stereo unspecified) + Cc1c(S(C)(=O)=O)c(-c2cc(F)cc(N3CCN(c4ccc(NS(=O)(=O)c5ccc(NC(CCN6CCC(C(=O)OCCCP(=O)(O)O)CC6)CSc6ccccc6)c(S(=O)(=O)C(F)(F)F)c5)cc4)CC3)c2)c(-c2ccc(Cl)cc2)n1C(C)C
stdout: 69.4

More entries:
stdin: Return reported viability, T/C; argument: NC(=O)C(=Cn1cnc(-c2cc(C(F)(F)F)cc(C(F)(F)F)c2)n1)c1cncnc1 + Cc1c(S(C)(=O)=O)c(-c2cc(F)cc(N3CCN(c4ccc(NS(=O)(=O)c5ccc(NC(CCN6CCC(C(=O)OCCCP(=O)(O)O)CC6)CSc6ccccc6)c(S(=O)(=O)C(F)(F)F)c5)cc4)CC3)c2)c(-c2ccc(Cl)cc2)n1C(C)C
stdout: 17.7

stdin: Return reported viability, T/C; argument: CCN1C(C(=O)NC23CCC(C(=O)O)(CC2)CC3)C(c2cccc(Cl)c2F)C2(C(=O)Nc3cc(Cl)ccc32)C12CCCCC2 (stereo unspecified) + Cc1c(S(C)(=O)=O)c(-c2cc(F)cc(N3CCN(c4ccc(NS(=O)(=O)c5ccc(NC(CCN6CCC(C(=O)OCCCP(=O)(O)O)CC6)CSc6ccccc6)c(S(=O)(=O)C(F)(F)F)c5)cc4)CC3)c2)c(-c2ccc(Cl)cc2)n1C(C)C
stdout: 91
